Assay: Cytotoxicity against human HepG2(2.2.15) cells after 8 days by MTT assay
Format: cell-based
measuredProperty: CC50 at 192 h

1) Nc1ccn([C@@H]2CS[C@H](CO)O2)c(=O)n1 | 5 µM
